# Lookup of reported IC50 keyed by entry
Tested on: SiHa
MEASUREMENT PROTOCOL: Cytotoxicity against human SIHA cells under deem light after 96 hrs by MTT assay
Format: functional, cell-based
Note: unit µM is implicit; provide only the numeric part.

Example compounds with recorded IC50:
- COMPOUND: "C=Cc1c(C)c2cc3nc(c(CC(=O)OC)c4[nH]c(cc5nc(cc1[nH]2)C(C)=C5CC)c(C)c4C(=O)NCCO)C(CCC(=O)OC)C3C (stereo not given) [PHEOPHORBIDE A ETHANOLAMIDE]"
  UNITS TEXT: "µM"
  MEASURED: 35
- COMPOUND: "COc1cccc2c1C(=O)c1c(O)c3c(c(O)c1C2=O)C[C@@](O)(C(=O)CO)C[C@@H]3O[C@H]1C[C@H](N)[C@H](O)[C@H](C)O1 [DOXORUBICIN]"
  UNITS TEXT: "µM"
  MEASURED: 0.5
- COMPOUND: "CCCOC(C)C1=C(C)c2cc3[nH]c(cc4nc(cc5[nH]c(cc1n2)c(C)c5CCC(=O)NCCO)C(CCC(=O)NCCO)=C4C)c(C)c3C(C)OCCC (stereo not given) [HEMATOPORPHYRIN PROPYLETHER ETHANOLAMIDE]"
  UNITS TEXT: "µM"
  MEASURED: 44

Which measured IC50 value corresponds to CC1=C(CCC(=O)O)c2cc3nc(cc4[nH]c(cc5[nH]c(cc1n2)c(C)c5C(C)O)c(C)c4C(C)O)C(C)=C3CCC(=O)O (stereo not given) [HAEMAPORPHYRIN] ?
56
